Target: PD-1 expressed on cells (human, UniProt Q15116 25-288)
Sequence (Q15116 25-288 limits assumed): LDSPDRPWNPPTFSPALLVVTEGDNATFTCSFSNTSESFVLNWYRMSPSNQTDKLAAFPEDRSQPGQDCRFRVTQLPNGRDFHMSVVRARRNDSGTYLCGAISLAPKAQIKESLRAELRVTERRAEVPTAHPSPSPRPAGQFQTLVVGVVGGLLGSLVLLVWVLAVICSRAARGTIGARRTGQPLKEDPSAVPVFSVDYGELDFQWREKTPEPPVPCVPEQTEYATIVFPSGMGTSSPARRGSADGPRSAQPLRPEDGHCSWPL
Test: cell-based or functional assay
reported_endpoint: PD-1/PD-L1 blockage (IC50, µg/ml) (µg/mL)
Write it as a number; the unit µg/mL goes unstated.

*Q* Determine its reported PD-1/PD-L1 blockage (IC50, µg/ml): A24 (antibody, V domains shown, Tested as full-length mAb expressed in CHO cells; also called antibody 24; L24H24) VH: QVQLVESGGGVVQPGRSLRLSCAASGFTFSDSGMHWVRQAPGKGLEWVAVIWYDGSKKYYVDSVKGRFTISRDNSKNTLYLQMNSLRAEDTAVYYCATEGDYWGQGTLVTVSS VL: EIVMTQSPATLSVFPGERATLSCRASQSVSSNLGWYQQKPGQAPRLLMYGASTRVTGIPARFSGSGSGTEFTLTISSLQSEDFAVYYCQQYNTWPRTFGQGTKVEIK
*A* 0.266

*Q* Determine its reported PD-1/PD-L1 blockage (IC50, µg/ml): A17 (antibody, V domains shown, Tested as full-length mAb expressed in CHO cells; also called antibody 17; L17H17) VH: QVQLVESGGGVVQPGRSLRLSCAASGFTFSSYGMHWVRQAPGKGLEWVAVIWYDGSNQYYADSVKGRFTISRDNSKNTLFLQMNSLRAEDTAVYFCAGGGNYYGDFWGQGTLVTVSS VL: DIQMTQSPSSLSASVGDRVTITCRASQGIRNDLGWYQQKPGKAPKRLIYAASSLQSGVPSRFSGSGSGTEFTLTISSLQPEDFATYYCLQYISYPWTFGQGTKVEIK
*A* 0.533
